Just for reference, paper PMC8653067 is where these values come from.

Measured On: PLpro from SARS-CoV-2 (Severe acute respiratory syndrome coronavirus 2)
Type: biochemical
Condition Details: read-out: IC50 (µM) determined using Z-LRGG-AMC as a PLpro substrate
Measurement Label: IC50

Need IC50, item `CCO/N=C1\c2ccccc2-c2nc(C#N)c(C#N)nc21`
> 100 µM
